system: HARA; assay: relative viability (nuclei count vs DMSO), 5 days (fraction); higher = more cells survive; conditions: first compound 1.265 µM
Returns: string. Value is criterion met if measured relative viability is below 0.8, and criterion not met if it is greater than or equal to it.

COc1cc(N2CCC(C(N)=O)CC2)ccc1Nc1nc(N)c(Cl)c(Nc2ccccc2S(=O)(=O)C(C)C)n1 [HG-5-88-01] + C[C@]1(O)C[C@@H](c2nc(-c3ccc4ccc(-c5ccccc5)nc4c3)c3c(N)nccn32)C1 [Linsitinib] (partner 1 µM) = criterion not met

In: Decide: relative viability of COc1cc(N2CCC(C(N)=O)CC2)ccc1Nc1nc(N)c(Cl)c(Nc2ccccc2S(=O)(=O)C(C)C)n1 [HG-5-88-01] + COc1cccc2cc(-c3nc([C@H]4CC[C@H](C(=O)O)CC4)n4ncnc(N)c34)[nH]c12 [OSI-027] (partner 0.5 µM) strictly below 0.8?
Out: criterion met

In: Decide: relative viability of COc1cc(N2CCC(C(N)=O)CC2)ccc1Nc1nc(N)c(Cl)c(Nc2ccccc2S(=O)(=O)C(C)C)n1 [HG-5-88-01] + Cc1cc(Nc2cc(N3CCN(C)CC3)nc(Sc3ccc(NC(=O)C4CC4)cc3)n2)n[nH]1 [Tozasertib] (partner 0.1 µM) strictly below 0.8?
Out: criterion met

In: Decide: relative viability of Clc1ccc(Nc2nnc(Cc3ccncc3)c3ccccc23)cc1 [Vatalanib] + C[C@@H](Oc1cc(-c2cnn(C3CCNCC3)c2)cnc1N)c1c(Cl)ccc(F)c1Cl [Crizotinib] (partner 1 µM) strictly below 0.8?
Out: criterion not met

In: Decide: relative viability of COc1cc(N2CCC(C(N)=O)CC2)ccc1Nc1nc(N)c(Cl)c(Nc2ccccc2S(=O)(=O)C(C)C)n1 [HG-5-88-01] + Nc1ncn([C@H]2C[C@H](O)[C@@H](CO)O2)c(=O)n1 [Decitabine] (partner 2 µM) strictly below 0.8?
Out: criterion met

In: Decide: relative viability of COc1cc(N2CCC(C(N)=O)CC2)ccc1Nc1nc(N)c(Cl)c(Nc2ccccc2S(=O)(=O)C(C)C)n1 [HG-5-88-01] + COc1cc2c(Oc3ccc(NC(=O)C4(C(=O)Nc5ccc(F)cc5)CC4)cc3F)ccnc2cc1OCCCN1CCOCC1 [Foretinib] (partner 0.25 µM) strictly below 0.8?
Out: criterion met

In: Decide: relative viability of Clc1ccc(Nc2nnc(Cc3ccncc3)c3ccccc23)cc1 [Vatalanib] + Nc1ncn([C@H]2C[C@H](O)[C@@H](CO)O2)c(=O)n1 [Decitabine] (partner 2 µM) strictly below 0.8?
Out: criterion met

In: Decide: relative viability of Clc1ccc(Nc2nnc(Cc3ccncc3)c3ccccc23)cc1 [Vatalanib] + COc1cc2c(Oc3ccc(NC(=O)C4(C(=O)Nc5ccc(F)cc5)CC4)cc3F)ccnc2cc1OCCCN1CCOCC1 [Foretinib] (partner 0.25 µM) strictly below 0.8?
Out: criterion not met
